system: PC-3 prostate; assay: NCI-60 one-dose screen, 48 h (100 = growth as untreated, 0 = no growth, -100 = all killed); settings: 10 µM
About 83,000 compounds went through this panel and 20% of them were active in at least one assay; those are over-represented in the sample as a whole.

compound	growth [%]
COc1ccc(Nc2cc(C)nc(NCCCNc3ccnc4cc(Cl)ccc34)n2)cc1	7.12
Oc1[nH]c2cc(Cl)ccc2c1/C=c1/ccc2c(c1)N=C(c1cc(F)cc(F)c1)N=2	13
Cc1cc(Nc2ccc(Cl)cc2)nc(NCCCNc2ccnc3cc(Cl)ccc23)n1	-19.4
CCN(CC)CCCC(C)Nc1nc(-c2ccc(OC)cc2)nc2cc(Cl)ccc12 (stereo unspecified)	48.4
CC(=O)c1cc(Br)ccc1O	93.5
O=C1/C(=C\c2ccc(Cl)cc2)CN(C(=O)c2ccccc2)C/C1=C\c1ccc(Cl)cc1	25.8
CCC1(C(C)C)NC(=O)NC1=O (stereo unspecified)	98.5
CCOC(=O)C1(CC(C)C)CCOC1=O (stereo unspecified)	93.3
COc1ccc2c(c1)[n+]([O-])c(C#N)c(NC(=O)c1ccco1)[n+]2[O-]	179
CCCC#CCN(CC)CC	86
COc1ccc(N=C2C(=Nc3ccc(OC)cc3)N(c3ccc(N(C)C)cc3)C(=S)N2c2ccc(OC)cc2)cc1	52.5
Cn1c([N+](=O)[O-])cnc1/C=C1\Oc2ccccc2C1=O	-21.4
COC(=O)C(C(C[N+](=O)[O-])c1ccccc1)=P(c1ccccc1)(c1ccccc1)c1ccccc1 (stereo unspecified)	85.4
CCN(CC)CCOc1nc2cc(OC)c(OC)cc2c2c1-c1ccc(OC)cc1C2=O	81.8
COc1ccc(-c2nc(-c3nc4ccc(OC)cc4[nH]3)cc3c2[nH]c2ccccc23)cc1	25.8
COc1cc(-c2nnc(-c3c(-c4ccc(F)cc4)nc4ccccn34)o2)cc(OC)c1OC	90.7
CC(C)(Cl)CCC1=C(Cl)C(=O)c2ccccc2C1=O	32.8
COc1cccc(Cn2c(-c3nonc3N)nc3ccccc32)c1	11
COC(=O)C1=NNC(=S)N(c2cc(C)[nH]n2)C(=O)C1	99.1
CSCCCNC(=O)c1ccc2c(c1)/C(=C/c1[nH]c(C)cc1C)C(=O)N2	11.4
Clc1cc2c(c(CSc3nc4ccccc4n4cccc34)c1)OCOC2	60.5
Fc1ccc2nc(-c3nc(-c4ccccc4)n4ccccc34)[nH]c2c1	-71
CC(=O)N1C/C(=C/c2ccc(Cl)cc2)C(=O)/C(=C/c2ccc(Cl)cc2)C1	-42.4
c1ccc(CNc2ncnc3scc(-c4cccs4)c23)nc1	58.6
CO/N=C(/C(=O)NC1C(=O)N2C(C(=O)O)=C(COC(N)=O)CSC12)c1ccco1 (stereo unspecified)	101
Cc1cccc2c1O/C(=C\c1ccc([N+](=O)[O-])o1)C2=O	-36.3
CCCCOC(=O)Oc1ccc(C(=O)Oc2ccc(OCC)cc2)cc1	93.2
N#CC1=C(Nc2ccccc2Cl)SC(c2ccccc2O)NC1=O (stereo unspecified)	96.7
CC1(C)Cc2c(sc3ncn4nc(-c5ccc(O)cc5)nc4c23)CO1	44.4
CC(=O)[C@H]1CC[C@H]2[C@@H]3CCC4=CC(=O)C=C[C@]4(C)[C@H]3CC[C@]12C	87.7
N#CCCN1C/C(=C/c2ccc(Br)cc2)C(=O)/C(=C/c2ccc(Br)cc2)C1	-34
COc1ccc(/C(=C2\O[C@@H]([C@H]3COC(C)(C)O3)[C@H]3OC(C)(C)O[C@@H]23)c2cc(OC)c(OC)c(OC)c2)cc1O	30.6
Cc1cc(C)c2c(n1)sc1c(Nc3ccc(Cl)cc3)ncnc12	49.2
CCOC(=O)C1CCc2c(ccc3ccccc23)N1CCC#N (stereo unspecified)	84.9
COc1cc(Nc2ccnc(NCCCNc3ccnc4cc(Cl)ccc34)n2)cc(OC)c1	26.1
CC/C(=C(/c1ccc(OCCN(C)C)cc1)c1ccc(OC(=O)CCCCC(=O)c2c(C)[nH]c(/C=C3\N=C(c4ccc[nH]4)C=C3OC)c2C)cc1)c1ccccc1	42.3
O=S(=O)(NCCNc1nccc(-c2c(-c3ccc(F)cc3)nc3sccn23)n1)c1ccc2ccccc2c1	73.4
COc1cc(/C=C2\Oc3cc(OCC(=O)c4ccccc4)ccc3C2=O)cc(OC)c1OC	85.2
COc1cc2cc3c(nc2cc1OC)CCN3Cc1ccc(NC(=O)Nc2ccc(F)cc2F)cc1	68.8
CC[C@H](C)C(=O)O[C@H]1CCC=C2C=C[C@H](C)C(CCC3C[C@@H](O)CC(=O)O3)[C@H]21 (stereo partly specified)	31.1
COc1ccc(-c2cc(/C=C3\C(=O)Nc4ccc(Cl)cc43)[nH]n2)cc1OC	88.4
